Listing of entries alongside the reported glycan array binding signal (z-score).
Molecular target: Neu5Ac(a2-3)Gal6S(b1-4)GlcNAc
Experiment: glycan array binding signal (z-score within array); higher = stronger binding
Conditions: glycan notation: IUPAC condensed, linker removed
This is one part of a sample in which the strongest signals are shown more often than they occur.
// no unit, no text: just the number

Check out these entries, answers already filled in.
{"binder": "Clrb (Mus musculus) (protein) ITGATKTEQIPVNKTYAACPQNWIGVENKCFYFSEYPSNWTFAQAFCMAQEAQLARFDNQDELNFLMRYKANFDSWIGLHRESSEHPWKWTDNTEYNNTIPIRGEERFAYLNNNGISSTRIYSLRMWICSKLNSYSLHCQTPFFPSGTKHHHHHHHHG", "glycan array binding signal (z-score)": -0.365}
{"binder": "Sp8391B-bot-388-20-388 (Bacteroides ovatus) (protein) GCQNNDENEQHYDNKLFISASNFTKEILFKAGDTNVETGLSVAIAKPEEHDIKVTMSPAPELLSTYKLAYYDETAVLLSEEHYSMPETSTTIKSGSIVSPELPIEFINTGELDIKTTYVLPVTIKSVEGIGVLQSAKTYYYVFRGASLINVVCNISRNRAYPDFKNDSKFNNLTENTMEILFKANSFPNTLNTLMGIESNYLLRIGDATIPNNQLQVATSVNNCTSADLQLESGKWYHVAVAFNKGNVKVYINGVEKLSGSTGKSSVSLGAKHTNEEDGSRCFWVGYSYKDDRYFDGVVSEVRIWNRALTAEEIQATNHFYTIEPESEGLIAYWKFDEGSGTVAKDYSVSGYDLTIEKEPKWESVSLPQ", "glycan array binding signal (z-score)": -0.501}
{"binder": "AAA (Anguilla anguilla), Q7SIC1 (protein) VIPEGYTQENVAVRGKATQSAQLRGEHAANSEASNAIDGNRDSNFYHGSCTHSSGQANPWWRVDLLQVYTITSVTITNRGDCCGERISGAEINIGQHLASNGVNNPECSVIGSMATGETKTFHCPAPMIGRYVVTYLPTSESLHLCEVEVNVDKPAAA", "glycan array binding signal (z-score)": -0.179}
{"binder": "CFEM-SCL (Saccharomyces cerevisiae), O13547 (protein) MRATTLLSSVVSLALLSKEVLATPPACLLACVAQVGKSSSTCDSLNQVTCYCEHENSAVKKCLDSICPNNDADAAYSAFKSSCSEQNASLGD", "glycan array binding signal (z-score)": -0.311}
{"binder": "AAL (Aleuria aurantia), P18891 (protein) PTEFLYTSKIAAISWAATGGRQQRVYFQDLNGKIREAQRGGDNPWTGGSSQNVIGEAKLFSPLAAVTWKSAQGIQIRVYCVNKDNILSEFVYDGSKWITGQLGSVGVKVGSNSKLAALQWGGSESAPPNIRVYYQKSNGSGSSIHEYVWSGKWTAGASFGSTVPGTGIGATAIGPGRLRIYYQATDNKIREHCWDSNSWYVGGFSASASAGVSIAAISWGSTPNIRVYWQKGREELYEAAYGGSWNTPGQIKDASRPTPSLPDTFIAANSSGNIDISVFFQASGVSLQQWQWISGKGWSIGAVVPTGTPAGW", "glycan array binding signal (z-score)": 1.5}

Proceeding to the next binder to report its glycan array binding signal (z-score).
INPUT: glycan array binding signal (z-score) lookup needed for EEA (Euonymus europaeus) (protein) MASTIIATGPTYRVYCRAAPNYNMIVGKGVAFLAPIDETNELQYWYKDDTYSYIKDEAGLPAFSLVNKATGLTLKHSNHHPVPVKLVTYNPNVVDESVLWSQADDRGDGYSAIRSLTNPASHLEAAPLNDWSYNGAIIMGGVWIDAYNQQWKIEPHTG , thanks.
OUTPUT: -0.212
